Target: Arginase-2, mitochondrial (Homo sapiens) (UniProt P78540)
Sequence (P78540 whole entry): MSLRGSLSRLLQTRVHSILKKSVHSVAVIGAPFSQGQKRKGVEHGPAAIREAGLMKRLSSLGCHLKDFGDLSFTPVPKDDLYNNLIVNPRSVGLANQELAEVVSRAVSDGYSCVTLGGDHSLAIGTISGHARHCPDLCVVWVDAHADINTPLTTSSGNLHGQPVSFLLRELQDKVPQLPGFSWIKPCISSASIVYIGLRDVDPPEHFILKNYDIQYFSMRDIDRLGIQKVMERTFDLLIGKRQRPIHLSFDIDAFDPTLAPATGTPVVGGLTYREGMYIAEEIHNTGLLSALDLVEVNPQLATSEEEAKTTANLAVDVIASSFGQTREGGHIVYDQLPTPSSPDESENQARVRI
Assay: in vitro enzyme assay to detect the production of urea directly proportional to the activity of Arginase II; also: in the data most compounds retested in dose-response had high values
Assay type: functional
Set-up: scale not given: direction of the effect not stated beside the values
Settings: 30 µM
Assign Percent Effect to each entry below.
One number for each entry, in %.

In the examples that follow, each entry is paired with its recorded Percent Effect.
CCOCCNC(=O)c1cc(Br)c2c(c1)OCCO2 ... 9.19
Cc1cc(C)n(C2CN(Cc3noc(C4CC4)n3)C2)n1 ... 8.11
COc1ccc(CNCc2nnc3n2CC(C(F)(F)F)CC3)cc1 (centres undefined) ... 9.19

Name the recorded Percent Effect for CNC(=O)[C@H]1C[C@@H]2CN(C(=O)c3cccnc3)C[C@@H]2N1S(C)(=O)=O .
5.95

----------
Molecular target: AMP-activated protein kinase, AMPK (Homo sapiens) (UniProt P54646+O43741+P54619+Q9UGJ0+Q9Y478+Q13131+Q9UGI9)
Test: AMP-dependent Kinase enzyme assay. An in vitro enzyme assay that detects ADP turnover that is directly proportional to AMPK activity. This uses naive AMPK that is activated during the assay with MK-8722
Format: functional
Parameters: scale not given: direction of the effect not stated beside the values
Conditions: 30 µM
Give measured Percent Effect for each item. Keep answers brief.
One number for each entry, in %.

Example cases with answers are listed next.
COc1ccc(CC2(CO)CCN(c3cc(N)ncn3)CC2)cc1 ... 8.25
NC(=O)NC1(C(=O)N2CCc3c(Cl)cccc3C2)CCCCC1 ... -3.74

// batch mode: one Percent Effect value per listed entry
1. CC(NCc1nnc2n1CCCC2)c1nc(-c2cccs2)no1 (stereo not given)
2. CCOc1ccc(Cl)cc1CCNC(=O)Cn1nc(C)ccc1=O
3. CC(C)N(CC(=O)Nc1cccc(C#N)c1)C1CC1
4. CN1CSC[C@H]1C(=O)N1CCC(Cc2ccccc2F)CC1

1: -0.613; 2: 5.21; 3: 0.161; 4: 0.306

Provide the reported Percent Effect of each entry below, same order.
1. O=C(O)c1cnc(OCC2CC2)c(Cl)c1
2. O=C1CN(Cc2cn(CC3CCCN(C4CCSCC4)C3)nn2)CCN1 (stereo not given)
3. CCn1ncnc1C(C)Nc1cc(C2CC2)ncn1 (stereo not given)
4. CC(C)c1nc(CN(C)C(=O)C(O)c2ccc(Cl)cc2)cs1 (stereo not given)

1. -1.49
2. -8.48
3. 3.16
4. -2.36

For every item below, please supply its Percent Effect.
1. CCOCCNCc1cc(O)c2cc(C)ccc2n1
2. Cc1ccccc1Oc1ncccc1CNC(=O)Cn1cccnc1=O
3. Cc1nccc(CNC(=O)NCCC(=O)N2CCCc3ccccc32)n1
4. Cc1cc(N2CCCC(N(C)C)C2)n2nccc2n1 (stereo not given)
5. CC(Cn1cncc1-c1cnn(Cc2ccccc2)c1)N1CCCCC1 (stereo not given)
6. CC1CCCN(c2ncc(-c3ccccc3F)c(-c3nccn3C)n2)C1 (stereo not given)
7. COCCOCC(=O)Nc1nc2c(OC)cc(F)cc2s1

1: -3.23; 2: -5.58; 3: -8.67; 4: 1.81; 5: 7.07; 6: 9.01; 7: 3.08

Hi! Can you tell me Percent Effect for each of these compounds?
1. COc1cccc(OCC2CCCN(c3cc(C(N)=O)ccn3)C2)c1 (stereo not given)
2. CN(C)c1ccc(C(=O)N2CCC(c3cc4ncccc4[nH]3)CC2)cc1

1. 4.97
2. 21.8

Here are 6 compounds. What values of Percent Effect were reported for them?
1. CN(C)CCCC(=O)NC1CC(C)(C)Cc2nc(C(C)(C)C)ncc21 (stereo not given)
2. CCN(Cc1ccc2c(c1)OCO2)c1ncc(S(N)(=O)=O)s1
3. CC(C)Cn1nc(-c2ccc(C(=O)O)cc2)cc1-c1ccc(F)cc1
4. COc1ccccc1C(C)(C)NC(=O)Nc1ccc(F)c(C(N)=O)c1
5. O=S(=O)(Cc1nc(C2CC2)no1)c1cc(F)ccc1F
6. CCC(O)Cn1nc(-c2ccc(C(=O)O)cc2)cc1-c1ccc(F)cc1 (stereo not given)

1. 8.49
2. 1.52
3. 22.7
4. -5.46
5. 8.83
6. 12
